# study_target: human ORL1 receptor (Homo sapiens, UniProt P41146)
# Construct: purchased PerkinElmer; host or cells: HEK-293 cells transfected with human ORL1 receptor (membranes)
# Sequence (P41146 whole entry): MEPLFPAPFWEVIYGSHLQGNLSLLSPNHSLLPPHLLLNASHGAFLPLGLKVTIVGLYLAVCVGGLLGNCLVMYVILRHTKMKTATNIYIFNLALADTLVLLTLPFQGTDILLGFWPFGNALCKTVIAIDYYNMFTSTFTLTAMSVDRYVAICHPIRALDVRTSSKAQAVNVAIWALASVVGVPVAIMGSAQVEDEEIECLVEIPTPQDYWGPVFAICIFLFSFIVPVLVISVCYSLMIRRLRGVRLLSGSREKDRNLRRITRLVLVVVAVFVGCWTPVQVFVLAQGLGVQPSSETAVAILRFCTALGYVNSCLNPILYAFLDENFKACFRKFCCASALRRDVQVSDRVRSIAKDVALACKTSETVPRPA
# experimental_details: ORL1-Receptor Binding Assay
# condition_details: [3H]nociceptin, human ORL1 receptor transfected HEK-293 cell membranes; read-out: Ki
Counter-ions that a name gives are not always drawn.
observed_property: pKi
Lab note: report pKi as minus log10 of the concentration in molar units, number only.

Known results for compounds:
CN(C)C(=O)C(CN1C2CCC1CC1(C2)OCCc2cc(F)ccc21)Cn1cccn1 (stereo not drawn) [Example 11, CITRATE]: 8.89
CN(C)C(=O)C(CN1C2CCC1CC1(C2)OCCc2ccccc21)Cn1cccn1 (stereo not drawn) [Example 10, CITRATE]: 8.14

Switching to the query record.
Provide only the value of recorded pKi for CN(C)C(=O)C(CN1C2CCC1CC1(C2)OCc2ccccc21)Cn1cccn1 (single isomer, unassigned; (+)) [Example 3, CITRATE]
8.70
